The reported measurements were obtained from patent US7351690B2.

Tested on: bombesin receptor
Assay: competitive binding assay, 125I-Bombesin, rat brain membranes
Settings: inhibition of 0.01 nM 125I-Bombesin binding; rat brain membranes; test concentration not given
Square brackets hold non-standard residues; d marks the D form. Ends that are not written are not given here. pGlu = O=C1CC[C@@H](C(=O)O)N1; Nle = CCCC[C@H](N)C(=O)O

- SUBSTANCE: "Ala-Val-Cys-His-Leu-Leu-NH2 (AVCHLL-NH2; not fully specified (bridges); printed as Ala-Val-Cys-His-Leu-Leu-NH2; also: oxorhenium(V) N3S1 chelate (Re(V)=O)) [11-6]"
  TARGET_SYSTEM: "bombesin receptor"
  % Inhibition [%]: 6
- SUBSTANCE: "Pyr-Gln-Arg-Leu-Gly-Asn-Cys-Gln-Trp-Ala-Val-Gly-His-Leu-Nle-NH2 ([pGlu]QRLGNCQWAVGHL[Nle]-NH2; numbers in words are those of the source; also: oxorhenium(V) N3S1 chelate (Re(V)=O)) [6-9]"
  TARGET_SYSTEM: "bombesin receptor"
  % Inhibition [%]: 91
